Consider the following binders; for each one, report its log10(koff).
Target: T1, NPNA8 peptide (Plasmodium falciparum (isolate 3D7)., not fully specified)
T1 construct: source: synthetic peptide (InnoPep Inc)
T1 chain: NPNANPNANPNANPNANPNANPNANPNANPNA
Experiment: BLI
Conditions: both partners purified
Response schema: value (number) is log10 of koff in units of s⁻¹.

Recorded log10(koff) for 239R Fab (Fab, V domains shown, also called germline-reverted 239; source: ExpiCHO cells, purified (mAb Select PrismA or Capture Select, SEC)) VH: QVQLVESGGGVVQPGRSLRLSCAASRLTFSSYGMHWVRQTPGKGLEWVAVIWHDGSNKFYADSVKGRFTISRDNSKNTLYLQMNSLRDEDTAIYYCAKDWGGASDRVFDYWGRGTLVIVSS VL: DIQMTQSPSTLSASVGDRVTITCRASQSVSTSLAWYQQKPGKAPNLLIYQASTLYTGVPSRFSGSGSGTEFTLTIGSLQPDDFATYYCQHYNSYSRITFGQGTRLEIK , please?
-1.66

Recorded log10(koff) for 227 Fab (Fab, V domains shown, also called mAb 227; source: ExpiCHO cells, purified (mAb Select PrismA or Capture Select, SEC)) VH: QVQLVQSGGGVVQPGRSLRLSCVTSGFTFPAFGMHWVRQAPGKGLEWVAVIWYDGSKKYYADSVRGRFTISRDNSRNTLYLQMHSLRAEDTAVYYCARVKNYESSGYSQCLDYWGQGVLVTVAS VL: QSVLTQPPSVSGAPGQRVTISCTGSSSNIGAGYDVHWYQQLPGTAPKLLIYGNGNRPSGVPDRFSGSKSGTSVSLAITGLQAEDEADYYCQSYDSSLSAFVFGTGTKVTVL , please?
-2.46

Recorded log10(koff) for 356R Fab (Fab, V domains shown, also called germline-reverted 356; source: ExpiCHO cells, purified (mAb Select PrismA or Capture Select, SEC)) VH: QVQLVESGGGVVQPGRSLRLSCAASGFTFSSYGMHWVRQTPGKGLEWVAVIWHDGSNKFYADSVKGRFTISRDNSKNMIYLQMNSLRVEDTAIYYCARDSLFYDHDNSGYYGYWGQGTLVTVSS VL: EIVMTQSPATVSVSPGERATLSCRASQSVTSKLAWYQQKPGQAPRLLIYGASTRATGIPARFSGSGSGTEFTLTISSLQSEDFAVYFCQQYNNGFTFGPGTKVDFK , please?
-1.77

Recorded log10(koff) for 356 Fab (Fab, V domains shown, also called mAb 356; source: ExpiCHO cells, purified (mAb Select PrismA or Capture Select, SEC)) VH: QVQLVESGGGVVQPGRSLRLSCAASGFTFRNFGMHWVRQTPGKGLEWVAVIWHDGSNKFYADSVEGRFTISRDNSKNMIYLQMNSLRVEDTAIYYCARDSLFYDHDNSGYYGYWGQGTLVTVSS VL: QIVMTQSPATVSVSPGERATLSCRASRSVTSKLAWYQQKPGQAPRLLIYGASTRATGIPARFSGSGSGTEFTLTISSLQSEDFAVYFCQQYNNGFTFGPGTKVDFK , please?
-3.25

Recorded log10(koff) for 239 Fab (Fab, V domains shown, also called mAb 239; source: ExpiCHO cells, purified (mAb Select PrismA or Capture Select, SEC)) VH: QVQLVESGGGVVQPGRSLRLSCAASRLTFRNFGMHWVRQTPGKGLEWVAVIWHDGSNKFYADSVEGRFTISRDNSKNTLYLQMNSLRDEDTAIYYCAKDWGGASDRVFDYWGRGTLVIVSS VL: DIQMTQSPSTLSASVGDRVTITCRASQSVSTSLAWYQQKPGKAPNLLIYQASTLYRGVPSRFSGSGSGTEFTLTIGSLQPDDFATYYCQHYNSYSRITFGQGTRLEIK , please?
-3.25

Recorded log10(koff) for 337 Fab (Fab, V domains shown, also called mAb 337; source: ExpiCHO cells, purified (mAb Select PrismA or Capture Select, SEC)) VH: QVQLVESGGGVVQPGRSLRLSCAASGFSFSTYGMHWVRQAPGKGLEWVALIWHDGSKKFYSESVRGRFTISRDNSMDTLYLQMSSLRAEDTAVYYCARDGADYFDSTGGAFDIWGQGTMVIVSS VL: EIVMTQSPATLSVSPGERATLSCRASQSVSSNLAWYQQKPGQAPRLLIYGASTRATGIPARFSGSGSGTEFTLTISSLQSEDFATYYCQQYKTWWTFGQGTKVEIK , please?
-2.46

Recorded log10(koff) for 311R Fab (Fab, V domains shown, also called germline-reverted 311; source: ExpiCHO cells, purified (mAb Select PrismA or Capture Select, SEC)) VH: QVQLVESGGGVVPPGRSLRLSCATSGFTFSSYGMHWVRQAPGKGLEWVAIIWYDGSNKFYAASVKGRFTISRDNSKNTLYLQMNSLRVEDTAVYYCARAAYYDTSGYGDYWGQGTLVTVSS VL: QSVLTQPPSVSGAPGQTVTISCTGGSSNIGAGYDVHWYQQLPGTAPKLLIYGNINRPSGVPDRFSGSKSGTSASLAITGLQAEDEADYYCQSYDSSLSGSWVFGGGTKLTVL , please?
-2.29

Recorded log10(koff) for 311 Fab (Fab, V domains shown, also called mAb 311; source: ExpiCHO cells, purified (mAb Select PrismA or Capture Select, SEC)) VH: QVQLVESGGGVVPPGRSLRLSCATSGFTFSNYGMHWVRQAPGKGLEWVAIIWYDGSRNFYAASVEGRFTISRDNSKNTLYLQMNSLRVEDTAVYYCARAAYYDTSGYGDYWGQGTLVTVSS VL: QSVLTQPPSVSGAPGQTVTISCTGGSSNIGAGYDVHWYQQLPGTAPKLLIYGNINRPSGVPDRFSGSKSGTSASLAITGLQAEDEADYYCQSYDRRLSGSWVFGGGTKLTVL , please?
-3.60

Recorded log10(koff) for 334 Fab (Fab, V domains shown, also called mAb 334; source: ExpiCHO cells, purified (mAb Select PrismA or Capture Select, SEC)) VH: QVQLVESGGGVVQPGRSLTLSCAASGFTFSNYGMHWVRQTPGKGLAWVAIIWYDGSKTYYEDSVKGRFTISRDNSKNTLYLQMNSLRVDDTAVYYCARVRHSSSRHGSAFDLWGQGTLVTVSS VL: VIQMTQSPSTLSASVGDRVTITCRASQSVSTWLAWYQQKPGQGPKLLIYEASSLESGVPSRFSGSGSGTEFTLTISSLQPDDFATYYCQQYNSYSFWTFGQGTKVEIK , please?
-2.89

Recorded log10(koff) for 364 Fab (Fab, V domains shown, also called mAb 364; source: ExpiCHO cells, purified (mAb Select PrismA or Capture Select, SEC)) VH: QVQLVESGGGVVQPGGSLRLSCAASGFTFSGYGMHWVRQVPGKGLEWVAIIWFDGSQKYYADSVQGRFTISRDNSKKTLFLRMNSLRAEDTAVYYCAKVHDDEPTQDYWGQGTLVTVSS VL: DIQMTQSPSTLSASVGDRVTITCRASQGISTSLAWYQQKPGKAPKLLIYKASSLESGVPSRFSGSGSGTEFTLTITSLQPEDFATYYCQQYKRYWTFGQGTKVEIK , please?
-3.57
